# assay system: human liver glycogen phosphorylase a (HLGPa) (Homo sapiens, UniProt P06737)
# Construct: creating a full-length cDNA fused at the 5′ end to codons for methionine-glycine-alanine-histidine; 6xHis tag (leader Met-Gly-Ala-His6-Gly-Gly) (N); made in house; host or cells: E. coli (bacterial expression plasmid pTXK1007LTev)
# Sequence (P06737 2-847 limits assumed): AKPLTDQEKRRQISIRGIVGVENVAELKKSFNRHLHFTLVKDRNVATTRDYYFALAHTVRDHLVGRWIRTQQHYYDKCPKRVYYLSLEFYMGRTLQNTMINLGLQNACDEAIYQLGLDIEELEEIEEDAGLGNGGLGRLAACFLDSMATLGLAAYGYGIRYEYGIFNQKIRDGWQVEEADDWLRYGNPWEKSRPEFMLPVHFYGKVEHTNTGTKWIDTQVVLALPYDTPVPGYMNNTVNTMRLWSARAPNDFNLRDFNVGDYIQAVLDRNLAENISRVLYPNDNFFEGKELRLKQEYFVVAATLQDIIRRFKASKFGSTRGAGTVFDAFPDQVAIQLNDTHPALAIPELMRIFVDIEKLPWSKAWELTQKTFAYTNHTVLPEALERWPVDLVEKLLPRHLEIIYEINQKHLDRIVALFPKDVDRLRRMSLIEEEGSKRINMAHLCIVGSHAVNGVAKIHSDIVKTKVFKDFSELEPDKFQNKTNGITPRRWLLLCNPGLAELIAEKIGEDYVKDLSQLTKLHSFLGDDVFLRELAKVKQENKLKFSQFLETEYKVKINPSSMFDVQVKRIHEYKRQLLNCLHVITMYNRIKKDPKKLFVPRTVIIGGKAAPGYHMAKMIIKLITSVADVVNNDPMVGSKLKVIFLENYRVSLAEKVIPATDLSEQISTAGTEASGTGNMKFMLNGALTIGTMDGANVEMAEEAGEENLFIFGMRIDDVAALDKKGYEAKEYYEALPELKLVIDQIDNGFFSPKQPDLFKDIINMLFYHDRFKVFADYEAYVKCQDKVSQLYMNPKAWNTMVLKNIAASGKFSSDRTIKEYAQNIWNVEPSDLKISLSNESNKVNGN
# assay protocol: Human liver glycogen phosphorylase a enzymatic activity assay (coupled, fluorescent resorufin readout, with and without 10 mM glucose)
# Assay type: biochemical
# test conditions: human liver glycogen phosphorylase a enzymatic activity assay
observable: IC50 (nM)

(a) CCc1cccc(CC)c1NC(=O)Nc1cc2ccccc2cc1C(=O)NC(C(=O)O)c1ccccc1 (stereo not drawn)
(b) COc1ccc(-c2cc(NC(=O)Nc3c(C)cc(C)cc3C)c(C(=O)O)s2)cc1
(c) Cc1ccccc1NC(=O)Nc1cc2ccccc2cc1C(=O)NCC(=O)O
(d) Cc1cccc(Cl)c1NC(=O)Nc1sc2c(c1C(=O)N[C@H](C(=O)O)C1CCCCC1)CCCC2
(e) CCCc1cc(C)c(NC(=O)Nc2cc(-c3ccc(F)c(F)c3)ccc2C(=O)N[C@H](C(=O)O)[C@@H](C)OC(C)(C)C)c(C)c1
IN: Rank the items above by IC50, largest value first. # respond with the labels, arranged in the requested order
OUT: a, c, d, b, e

(P) Cc1cccc(Cl)c1NC(=O)Nc1cc(Cl)ccc1C(=O)N[C@@H](CC1CCCCC1)C(=O)O
(Q) Cn1cc(-c2cc(C(=O)O)c(NC(=O)Nc3c(Cl)cccc3Cl)s2)cn1
IN: Please indicate which item has the smaller measured IC50: P versus Q Your answer should be the label attached to the chosen record.
OUT: Q

(I) Cc1ccccc1NC(=O)Nc1cc2ccccc2cc1C(=O)N[C@H](C(=O)O)C1CCCCC1
(II) CCOC(=O)C[C@H](NC(=O)c1ccc(-c2cccc(F)c2)cc1NC(=O)Nc1c(C)cc(C)cc1C)C(=O)O
IN: Please indicate which item has the smaller measured IC50: I versus II Your answer should be the label attached to the chosen record.
OUT: II

====

# assay system: human liver glycogen phosphorylase a (HLGPa) (Homo sapiens)
# Construct: creating a full-length cDNA fused at the 5′ end to codons for methionine-glycine-alanine-histidine; 6xHis tag (leader Met-Gly-Ala-His6-Gly-Gly) (N); made in house; host or cells: E. coli (bacterial expression plasmid pTXK1007LTev)
# assay protocol: Human liver glycogen phosphorylase a enzymatic activity assay (coupled, fluorescent resorufin readout, with and without 10 mM glucose)
# Type: biochemical
# test conditions: human liver glycogen phosphorylase a enzymatic activity assay
observable: IC50 (nM)

# example entries with known answers
Log: human liver glycogen phosphorylase a (HLGPa) (Homo sapiens), compound `COc1cc(NC(=O)Nc2c(C)cccc2Cl)c(C(=O)N[C@@H](CC2CCCCC2)C(=O)O)cc1OC` , IC50 = 13000

Log: human liver glycogen phosphorylase a (HLGPa) (Homo sapiens), compound `Cc1cccc(Cl)c1NC(=O)Nc1cc2ccccc2cc1C(=O)NCC(=O)O` , IC50 = 570

(A) COc1cccc(-c2cc(C(=O)N[C@H](C(=O)O)C3CCCCC3)c(NC(=O)Nc3c(Cl)cccc3Cl)s2)c1
(B) COc1ccc(-c2cc(C(=O)O)c(NC(=O)Nc3c(Cl)cccc3Cl)s2)cc1
(C) Cc1cccc(Cl)c1NC(=O)Nc1cc2ccccc2cc1C(=O)N[C@@H](CO)C(=O)O
(D) Cc1cc(C)c(NC(=O)Nc2cc(F)ccc2C(=O)N[C@H](C(=O)O)C2CCCCC2)c(C)c1
IN: Rank by IC50 (largest to smallest). # respond with the labels, arranged in the requested order
OUT: B, C, A, D

(I) Cc1cccc(C)c1NC(=O)Nc1cc(-c2cncnc2)ccc1C(=O)N[C@H](C(=O)O)C1CCCCC1
(II) Cc1cccc(C)c1NC(=O)Nc1cc(-c2cccs2)ccc1C(=O)N[C@H](C(=O)O)C1CCCCC1
IN: Please indicate which item has the smaller measured IC50: I versus II Your answer should be the label attached to the chosen record.
OUT: II
(II: 100 nM, I: 330 nM)
